# assayed.system: native human MET on living human cells (human, UniProt P08581 25-1390)
# Sequence (P08581 25-1390): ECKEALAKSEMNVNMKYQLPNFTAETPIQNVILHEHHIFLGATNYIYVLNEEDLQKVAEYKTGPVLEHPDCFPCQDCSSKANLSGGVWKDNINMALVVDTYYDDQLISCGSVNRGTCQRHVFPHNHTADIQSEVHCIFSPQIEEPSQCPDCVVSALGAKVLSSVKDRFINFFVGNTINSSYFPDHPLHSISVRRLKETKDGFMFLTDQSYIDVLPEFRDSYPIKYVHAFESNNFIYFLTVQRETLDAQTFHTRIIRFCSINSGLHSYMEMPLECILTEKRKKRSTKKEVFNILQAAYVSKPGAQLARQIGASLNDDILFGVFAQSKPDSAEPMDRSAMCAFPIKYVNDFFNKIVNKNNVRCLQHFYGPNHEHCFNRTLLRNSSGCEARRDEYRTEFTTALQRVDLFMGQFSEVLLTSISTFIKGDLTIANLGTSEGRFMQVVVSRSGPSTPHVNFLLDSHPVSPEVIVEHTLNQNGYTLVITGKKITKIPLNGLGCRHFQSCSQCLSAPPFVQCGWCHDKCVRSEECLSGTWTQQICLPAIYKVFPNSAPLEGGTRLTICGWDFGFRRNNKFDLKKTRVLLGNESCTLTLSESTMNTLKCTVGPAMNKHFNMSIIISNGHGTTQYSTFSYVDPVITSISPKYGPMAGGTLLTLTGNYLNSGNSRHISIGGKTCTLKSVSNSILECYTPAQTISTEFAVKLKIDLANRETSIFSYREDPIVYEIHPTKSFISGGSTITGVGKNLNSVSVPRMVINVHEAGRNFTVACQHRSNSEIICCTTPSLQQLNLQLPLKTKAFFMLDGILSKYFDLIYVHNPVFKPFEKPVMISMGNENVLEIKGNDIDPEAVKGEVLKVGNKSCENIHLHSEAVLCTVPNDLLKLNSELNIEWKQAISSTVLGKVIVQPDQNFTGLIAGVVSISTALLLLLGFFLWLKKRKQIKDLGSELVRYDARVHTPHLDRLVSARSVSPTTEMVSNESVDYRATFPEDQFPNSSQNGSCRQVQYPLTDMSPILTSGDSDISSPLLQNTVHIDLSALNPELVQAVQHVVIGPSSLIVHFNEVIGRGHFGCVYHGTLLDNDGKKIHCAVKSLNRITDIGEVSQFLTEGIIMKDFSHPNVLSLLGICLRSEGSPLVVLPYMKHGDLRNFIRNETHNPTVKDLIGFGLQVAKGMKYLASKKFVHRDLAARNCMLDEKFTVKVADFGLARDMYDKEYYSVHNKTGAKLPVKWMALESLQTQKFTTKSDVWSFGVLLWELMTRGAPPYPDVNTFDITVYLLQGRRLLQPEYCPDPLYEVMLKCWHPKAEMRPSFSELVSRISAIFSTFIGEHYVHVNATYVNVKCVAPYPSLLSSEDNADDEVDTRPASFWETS
# test.details: cell-based or functional assay
quantity.kind: cell scattering score, HPAF-II, 0.333 nM

- chimeric llama-human IgG1 mAb 71D4 (antibody, V domains shown) VH: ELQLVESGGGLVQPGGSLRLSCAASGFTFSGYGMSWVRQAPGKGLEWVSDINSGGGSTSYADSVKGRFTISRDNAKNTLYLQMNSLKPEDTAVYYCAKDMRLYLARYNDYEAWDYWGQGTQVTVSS VL: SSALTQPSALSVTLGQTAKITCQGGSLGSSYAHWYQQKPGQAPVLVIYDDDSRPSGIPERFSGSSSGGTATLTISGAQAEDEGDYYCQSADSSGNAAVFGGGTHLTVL: 0 score 0-4
- chimeric llama-human IgG1 mAb 71C3 (antibody, V domains shown) VH: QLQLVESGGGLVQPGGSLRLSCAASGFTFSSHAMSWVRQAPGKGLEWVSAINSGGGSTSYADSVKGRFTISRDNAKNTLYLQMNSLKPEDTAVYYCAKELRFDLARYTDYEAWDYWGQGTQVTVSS VL: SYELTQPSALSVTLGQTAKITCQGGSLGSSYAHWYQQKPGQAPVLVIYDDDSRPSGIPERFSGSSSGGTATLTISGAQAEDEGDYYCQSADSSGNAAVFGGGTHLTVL: 2 score 0-4
- chimeric llama-human IgG1 mAb 74C8 (antibody, V domains shown) VH: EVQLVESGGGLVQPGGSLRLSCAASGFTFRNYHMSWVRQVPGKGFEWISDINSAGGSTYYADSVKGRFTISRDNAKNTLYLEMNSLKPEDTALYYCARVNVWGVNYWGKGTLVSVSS VL: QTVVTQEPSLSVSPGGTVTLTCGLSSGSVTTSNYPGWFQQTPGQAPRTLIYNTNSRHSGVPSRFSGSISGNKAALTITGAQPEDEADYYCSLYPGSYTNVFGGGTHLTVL: 3 score 0-4
- chimeric llama-human IgG1 mAb 76G7 (antibody, V domains shown) VH: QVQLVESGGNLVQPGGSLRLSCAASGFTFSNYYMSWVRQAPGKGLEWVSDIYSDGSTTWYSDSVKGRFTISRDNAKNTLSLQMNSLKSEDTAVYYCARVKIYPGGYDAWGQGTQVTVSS VL: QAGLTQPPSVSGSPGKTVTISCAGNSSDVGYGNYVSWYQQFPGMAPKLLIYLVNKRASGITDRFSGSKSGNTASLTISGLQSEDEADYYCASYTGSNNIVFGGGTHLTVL: 0 score 0-4
- chimeric llama-human IgG1 mAb 71D6 (antibody, V domains shown) VH: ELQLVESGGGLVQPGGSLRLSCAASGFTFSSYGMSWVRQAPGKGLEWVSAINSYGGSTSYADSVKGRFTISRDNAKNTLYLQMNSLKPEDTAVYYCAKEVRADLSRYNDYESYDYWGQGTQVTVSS VL: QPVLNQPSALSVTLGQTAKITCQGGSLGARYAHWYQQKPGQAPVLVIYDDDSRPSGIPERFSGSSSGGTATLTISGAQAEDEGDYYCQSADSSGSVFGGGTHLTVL: 4 score 0-4
